# Test system: A. baumannii ATCC BAA-1800
# assay protocol: MIC 90, resistant ATCC strains of the ESKAPE panel
# Type: cell-based
# applied conditions: Acinetobacter baumannii, ATCCBAA1800, MDR

- compound: "N=C(N)NC1C(O)[C@@H](CO)OC(OC2C(F)[C@H](O[C@H]3OC(CN)[C@@H](O)CC3N)C(N)C[C@H]2NC(=O)[C@@H](O)CCN)[C@@H]1O (stereo partly shown)"
  MIC90 (µg/mL): 16
- compound: "N=C(N)NC1[C@@H](O)C(OC2[C@@H](F)[C@H](O[C@H]3OC(CN)[C@@H](O)[C@H](O)C3N)C(N)C[C@H]2NC(=O)[C@@H](O)CCN)O[C@H](CO)[C@H]1O (stereo partly shown)"
  MIC90 (µg/mL): 16
- compound: "CNCCNC(=N)NC1[C@@H](O)C(OC2[C@@H](F)[C@H](O[C@H]3OC(CN)[C@@H](O)CC3N)C(N)C[C@H]2NC(=O)[C@@H](O)CCN)O[C@H](CO)[C@H]1O (stereo partly shown)"
  MIC90 (µg/mL): 32
- compound: "N=C(NC[C@@H]1CNCCO1)NC1[C@@H](O)C(OC2[C@@H](F)[C@H](O[C@H]3OC(CN)[C@@H](O)CC3N)C(N)C[C@H]2NC(=O)[C@@H](O)CCN)O[C@H](CO)[C@H]1O (stereo partly shown)"
  MIC90 (µg/mL): 32
- compound: "N=C(NC[C@H]1CCNC1)NC1[C@@H](O)C(OC2[C@@H](F)[C@H](O[C@H]3OC(CN)[C@@H](O)CC3N)C(N)C[C@H]2NC(=O)[C@@H](O)CCN)O[C@H](CO)[C@H]1O (stereo partly shown)"
  MIC90 (µg/mL): 32
- compound: "N=C(NC[C@@H]1CCNC1)NC1[C@@H](O)C(OC2[C@@H](F)[C@H](O[C@H]3OC(CN)[C@@H](O)CC3N)C(N)C[C@H]2NC(=O)[C@@H](O)CCN)O[C@H](CO)[C@H]1O (stereo partly shown)"
  MIC90 (µg/mL): 16
- compound: "N=C(NC[C@@H]1CCCN1)NC1[C@@H](O)C(OC2[C@@H](F)[C@H](O[C@H]3OC(CN)[C@@H](O)CC3N)C(N)C[C@H]2NC(=O)[C@@H](O)CCN)O[C@H](CO)[C@H]1O (stereo partly shown)"
  MIC90 (µg/mL): 32
- compound: "N=C(NCCN)NC1C(O)[C@@H](CO)OC(OC2C(F)[C@H](O[C@H]3OC(CN)[C@@H](O)CC3N)C(N)C[C@H]2NC(=O)[C@@H](O)CCN)[C@@H]1O (stereo partly shown)"
  MIC90 (µg/mL): 32
- compound: "NCC[C@H](O)C(=O)N[C@@H]1C[C@H](N)[C@@H](O[C@H]2O[C@H](CN)[C@@H](O)[C@H](O)[C@H]2O)[C@H](O)[C@H]1O[C@H]1O[C@H](CO)[C@@H](O)[C@H](N)[C@H]1O [Amikacin, amikacin, reference compound]"
  MIC90 (µg/mL): 64
- compound: "N=C(NCCO)NC1[C@@H](O)C(OC2[C@@H](F)[C@H](O[C@H]3OC(CN)[C@@H](O)CC3N)C(N)C[C@H]2NC(=O)[C@@H](O)CCN)O[C@H](CO)[C@H]1O (stereo partly shown) [ABX5029, Tobra-AHB-F-Gua 2-hydroxy-ethyl]"
  MIC90 (µg/mL): 16
